Sourced from ChEMBL document CHEMBL4513216

- assay procedure: Toxicity liver stage against HepG2, at 10uM
- Type: cell-based
- Set-up: test concentration 10 uM, cell line HepG2-A16-CD81EGFP
- study conditions: human, HepG2-A16-CD81EGFP cells; read-out: INHIBITION
result type: cytotoxicity at 10 µM (%)

| compound | result type | result |
| --- | --- | --- |
| COc1ccccc1OC1CCN(C(=O)C2CCCN(C)C2)CC1 (stereo unspecified) | cytotoxicity at 10 µM | -53.5 |
| COC(=O)[C@@H]1C[C@@H](O)CN1Cc1ccn(-c2ccc(F)cc2)n1 | cytotoxicity at 10 µM | -5.17 |
| O=C(C1SCCc2sccc21)N1CCC(O)CC1 (stereo unspecified) | cytotoxicity at 10 µM | -7.38 |
| Cc1cc(C(=O)N2CCCC2)ccc1NCC(=O)N1CCOCC1 | cytotoxicity at 10 µM | -5 |
| O=C(c1c[nH]c(=O)[nH]1)N1CCCC2(CCC(=O)N(C3CCCC3)C2)C1 (stereo unspecified) | cytotoxicity at 10 µM | -3.74 |
| Cc1ccc(NC(=O)N2CCN(Cc3noc(C4CC4)n3)CC2)cc1 | cytotoxicity at 10 µM | 4.88 |
